Molecular target: full-length beta-Catenin (Uniprot ID P35222) (Homo sapiens)
Construct: 10 nM full-length beta-Catenin (Uniprot ID P35222)
Sequence (P35222 1-781): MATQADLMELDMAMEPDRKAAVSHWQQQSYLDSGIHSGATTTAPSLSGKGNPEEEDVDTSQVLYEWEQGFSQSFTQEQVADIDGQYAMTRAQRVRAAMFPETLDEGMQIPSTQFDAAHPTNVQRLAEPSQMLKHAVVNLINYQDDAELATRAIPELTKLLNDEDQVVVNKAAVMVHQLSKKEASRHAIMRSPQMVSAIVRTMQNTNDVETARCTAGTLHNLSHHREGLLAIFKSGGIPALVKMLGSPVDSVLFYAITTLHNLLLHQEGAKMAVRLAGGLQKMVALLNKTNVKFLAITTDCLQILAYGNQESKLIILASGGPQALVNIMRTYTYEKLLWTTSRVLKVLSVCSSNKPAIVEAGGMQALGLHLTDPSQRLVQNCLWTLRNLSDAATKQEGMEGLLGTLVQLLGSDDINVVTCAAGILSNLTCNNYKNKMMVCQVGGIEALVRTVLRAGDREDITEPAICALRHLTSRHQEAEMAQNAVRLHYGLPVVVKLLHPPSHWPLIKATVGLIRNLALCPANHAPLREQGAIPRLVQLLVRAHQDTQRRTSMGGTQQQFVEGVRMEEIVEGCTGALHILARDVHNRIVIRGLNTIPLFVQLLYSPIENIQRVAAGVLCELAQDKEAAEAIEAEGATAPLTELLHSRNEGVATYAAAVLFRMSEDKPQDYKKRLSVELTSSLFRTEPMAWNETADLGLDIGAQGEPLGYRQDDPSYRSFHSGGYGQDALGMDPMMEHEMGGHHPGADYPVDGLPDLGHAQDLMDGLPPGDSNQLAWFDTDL
Test: Fluorescence polarization IC50 (beta-catenin / 5FAM-TCF4 10-53 competition)
Assay type: binding
Conditions: fluorescence polarization; read-out: beta-Catenin FP IC50
readout_type: IC50 (µM)
API: value field is a number in µM; no unit string.

// query Given the entry CC(=O)N1CCC[C@]12CC=CCCCC1(CCCC=CCCCOC(=O)N3CC[C@@](C(=O)N[C@@H](Cc4ccsc4)C(=O)N[C@@H](Cc4csc5ccccc45)C(=O)N[C@@H](C)C(N)=O)(C3)NC(=O)[C@H](CC(C)C)NC(=O)[C@H](Cc3ccccc3)NC(=O)[C@H](C)NC(=O)[C@H](CC(=O)N(C)C)NC(=O)[C@H](Cc3cccc(C(=O)O)c3)NC(=O)[C@H](CC(=O)O)NC1=O)NC(=O)[C@H](CC(C)(C)C)NC(=O)[C@H](CC(=O)O)NC2=O (some centres unmarked) , report its measured IC50.
// result 0.011

* * *

Assay: CHI Log D procedure
Type: physicochemical
Details: pH 7.4
readout_type: CHI Log D
Write the number on its own, no unit after it.

>>> result_number("CC(=O)N1CCC[C@]12CC=CCCCC1(CCCC=CCCCCCC[C@@](C)(C(=O)N[C@@H](Cc3ccccc3)C(=O)N[C@@H](Cc3csc4ccccc34)C(=O)N[C@@H](Cc3c[nH]cn3)C(N)=O)NC(=O)[C@H](CCC(N)=O)NC(=O)[C@H](Cc3ccccc3)NC(=O)[C@H](C)NC(=O)[C@H](C)NC(=O)[C@H](CCC(=O)O)NC(=O)[C@H](CC(=O)O)NC1=O)NC(=O)[C@H](C)NC(=O)[C@H](CC(=O)O)NC2=O (some centres unmarked) [I-418]")
2.089

# context switch: different compound, same CHI Log D
// query Given the entry CC[C@H](C)[C@@H]1NC(=O)[C@H](CC(=O)O)NC(=O)[C@]2(CC=CCCCC3(CCCC=CCCCCCC[C@@](C)(C(=O)N[C@@H](Cc4ccccc4)C(=O)N[C@@H](Cc4csc5ccccc45)C(=O)N[C@@H](CCC(N)=O)C(N)=O)NC(=O)[C@H](CCC(N)=O)NC(=O)[C@H](Cc4ccccc4)NC(=O)[C@H](C)NC(=O)[C@H](C)NC(=O)[C@H](CCCNC(N)=O)NC(=O)[C@H](CC(=O)O)NC3=O)NC1=O)CCCN2C(C)=O (some centres unmarked) [I-604] , report its measured CHI Log D.
// result 2.609
